FYI, the data here is from patent US20210230266A1.

Entries annotated with measured MMP2 production, Experiment 1 (human atrial fibroblasts + TGFB1)
Molecular target: T1, Human IL-11 (human, UniProt P20809 22-199); note: test concentration or dose not given here
T1 sequence: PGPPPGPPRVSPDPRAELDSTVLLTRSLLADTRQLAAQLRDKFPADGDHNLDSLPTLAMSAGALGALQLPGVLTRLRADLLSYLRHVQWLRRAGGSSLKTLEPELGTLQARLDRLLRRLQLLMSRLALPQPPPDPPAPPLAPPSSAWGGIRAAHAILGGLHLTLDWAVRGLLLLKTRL
Assay: cell-based or functional assay
The figure you give is taken to be in ng/mL; do not add the unit.

YU112-G06 (antibody) QVQLQESGGGVVQPGRSLRLSCAASGFTFSSYGMHWVRQAPGKGLEWVAVISYDGSNKYYADSVKGRFTISRDNSKNTLYLQMNSLRAEDTAVYYCAKIGATDPLDYWGQGTLVTVSSGSASAPKLEEGEFSEARVQSALTQPRSVSGSPGQSVTISCTGTISDVGGYNYVSWYQQHPGKAPKLMIYDVTKRRSGVPDRFSGSKSGNTASLTISGLQAEDEAGYYCSSYAGGYTWVFGGGTELTVL ... 55

Attention now turns to another entry.
In: Name the reported MMP2 production, Experiment 1 (human atrial fibroblasts + TGFB1) value associated with the binder YU100-H01 (antibody, human IgG1, V domains shown, Light chain shuffled human antibody; Only the variable domains are tied to the clone) VH: QVQLVQSGGGVVQPGRSLRLSCAASGFTFSSYAMHWVRQAPGKGLEWVAVISYDGSNKYYADSVKGRFTISRDNSKNTLYLQMNSLRAEDTAVYYCARIMGYDYGDYDVVDYWGQGTLVTVSS VL: QSALTQPRSVSGSPGQSVTISCTGTSSDVGAYNYVSWYQQHPGKAPKLMIYDVSERPSGVPDRFSGSKSGNTASLTISGLQAEDEADYYCCSYAGSYTWVFGGGTKLTVLG
Out: 48.3
